- TEST SYSTEM: Isoleucyl-tRNA synthetase (IleRS) (Escherichia coli (strain K12), UniProt P00956)
- Sequence (P00956 whole entry, looked up): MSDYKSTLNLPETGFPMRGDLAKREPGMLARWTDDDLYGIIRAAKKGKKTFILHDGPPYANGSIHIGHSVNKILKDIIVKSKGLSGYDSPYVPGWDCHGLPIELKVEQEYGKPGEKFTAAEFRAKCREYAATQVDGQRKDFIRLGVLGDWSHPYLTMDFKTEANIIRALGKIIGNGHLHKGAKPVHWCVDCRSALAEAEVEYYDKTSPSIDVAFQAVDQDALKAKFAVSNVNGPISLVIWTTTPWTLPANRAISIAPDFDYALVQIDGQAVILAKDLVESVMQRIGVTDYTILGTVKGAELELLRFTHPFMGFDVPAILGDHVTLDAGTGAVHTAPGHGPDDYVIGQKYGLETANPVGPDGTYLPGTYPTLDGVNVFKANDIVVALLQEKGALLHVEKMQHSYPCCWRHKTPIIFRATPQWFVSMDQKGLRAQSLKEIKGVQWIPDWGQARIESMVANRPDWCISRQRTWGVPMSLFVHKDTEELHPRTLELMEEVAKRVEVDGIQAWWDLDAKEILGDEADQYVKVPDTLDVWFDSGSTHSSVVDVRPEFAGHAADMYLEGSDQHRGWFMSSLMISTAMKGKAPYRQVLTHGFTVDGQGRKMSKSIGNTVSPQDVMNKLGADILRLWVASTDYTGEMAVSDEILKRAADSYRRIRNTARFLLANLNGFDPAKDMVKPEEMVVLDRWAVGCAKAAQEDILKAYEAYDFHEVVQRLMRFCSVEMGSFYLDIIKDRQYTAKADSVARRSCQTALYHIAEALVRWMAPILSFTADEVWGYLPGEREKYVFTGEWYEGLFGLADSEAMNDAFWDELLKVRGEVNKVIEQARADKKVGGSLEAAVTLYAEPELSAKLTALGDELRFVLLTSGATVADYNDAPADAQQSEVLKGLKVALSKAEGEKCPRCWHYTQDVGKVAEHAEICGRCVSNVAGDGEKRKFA
- ASSAY TEXT: Isoleucyl-tRNA synthetase enzyme inhibition (AMP-Glo; single point % inhibition at 100 μM and IC50)
- Format: biochemical
- ASSAY SETUP: E. coli IleRS; read-out: Enzyme Inhibition - IC50, E. coli IleRS
- Protocol: Study 1—Enzyme Inhibition The aminoacylation reaction catalyzed by aminoacyl-tRNA synthetases (aaRS) takes place in two steps. […] The activity of the pathogenic aaRSs was monitored by measuring AMP production using the commercial kit AMP-Glo (Promega, Madison, USA). […] Enzyme percentage inhibition values were recorded in triplicate at a single point concentration of 100 μM. […]
Cut-off 30 µM on IC50: below means MET, at or above means NOT MET.

MOLECULE | LABEL
CC[C@H](C)[C@H](N)C(=O)N=[S@@](N)(=O)c1ccc(C)s1.Cl | MET
CC[C@H](C)[C@H](N)C(=O)N=[S@](N)(=O)c1csc2ccccc12 | MET
CC[C@H](C)[C@H](N)C(=O)N=[S@](N)(=O)c1csc(Cl)c1 | MET
CC[C@H](C)[C@H](N)C(=O)N=[S@](N)(=O)c1ccc(Cl)s1 | NOT MET
CC[C@H](C)[C@H](N)C(=O)N=S(N)(=O)c1csc2ccsc12 (stereo partly drawn) | MET
CC[C@H](C)[C@H](N)C(=O)N=[S@@](N)(=O)c1cccc(Oc2ccc(Cl)cc2)c1 | NOT MET
CC[C@H](C)[C@H](N)C(=O)N=[S@@](N)(=O)c1cscc1C.Cl | MET
CC[C@H](C)[C@H](N)C(=O)N=[S@@](N)(=O)c1csc(Cl)c1 | NOT MET
CC[C@H](C)[C@H](N)C(=O)N=[S@@](N)(=O)c1scc(Br)c1Br | MET
CC[C@H](C)[C@H](N)C(=O)N=[S@](N)(=O)c1cccc(-c2ccccc2)c1 | NOT MET
CC(C)[C@H](N)C(=O)N=S(N)(=O)c1cccc2ccccc12 (stereo partly drawn) | NOT MET
CC[C@H](C)[C@H](N)C(=O)N=[S@](N)(=O)c1cccc(OC(F)(F)F)c1 | NOT MET
CC1CCC(N)(C(=O)N=S(N)(=O)c2ccccc2)C1 (stereo not drawn) | NOT MET
CC[C@H](C)[C@H](N)C(=O)N=[S@](N)(=O)c1cccs1 (single isomer, unassigned) | NOT MET
CC[C@H](C)[C@H](N)C(=O)N=S(N)(=O)c1ccc(C)s1 (stereo partly drawn) | MET
CC[C@H](C)[C@H](N)C(=O)N=[S@](N)(=O)c1ccc2cccnc2c1 | NOT MET
CC[C@H](C)[C@H](N)C(=O)N=[S@](N)(=O)c1ccc2c(c1)OCO2 | MET
CC[C@H](C)[C@H](N)C(=O)N=[S@@](N)(=O)c1ccsc1Cl | MET
CC[C@H](C)[C@H](N)C(=O)N=S(N)(=O)c1cc2sccc2s1 (stereo partly drawn) | MET
CC[C@H](C)[C@H](N)C(=O)N=[S@](N)(=O)c1cccc(C(C)(C)C)c1 | NOT MET
CC[C@H](C)[C@H](N)C(=O)N=[S@@](N)(=O)c1ccc(Cl)s1.Cl | MET
CC[C@H](C)[C@H](N)C(=O)N=[S@@](N)(=O)c1ccc2c(c1)CCO2 | MET
CC[C@H](C)[C@H](N)C(=O)N=[S@](N)(=O)c1cccc(C(F)(F)F)c1 | NOT MET
CC[C@H](C)[C@H](N)C(=O)N=[S@@](N)(=O)c1ccc2cccnc2c1 | MET
CC[C@H](C)[C@H](N)C(=O)N=[S@](N)(=O)c1ccsc1Cl | MET
CC[C@H](C)[C@H](N)C(=O)N=S(N)(=O)c1cc2ccccc2s1 (stereo partly drawn) | MET
